Origin of values: ChEMBL document CHEMBL1201862

System: MOLT-4
Assay: NCI tumour cell line growth inhibition, 48 h
Calls of active or inactive are those of the source. Rule as the data show it: active = GI50 up to about 1.1 µM and inactive = higher.
Outcome codes: Y (active), N (inactive)

>  <Compound>
O=c1cccc2n1CC1CNC[C@H]2C1

>  <Target Desc>
MOLT-4

>  <Group Label>
N

$$$$
>  <Compound>
C=C1C(O)C2(O)OCC34C(CC5C(C)=CC(=O)C(O)C5(C)C23)OC(=O)C(OC(=O)C/C=C(\C)CCCCC)C14 (centres undefined)

>  <Target Desc>
MOLT-4

>  <Group Label>
Y

$$$$
>  <Compound>
CC(=O)OC1CCC2(C)C(=CCC3C2CCC2(C)C(C(C)C(=O)O)CCC32)C1 (centres undefined)

>  <Target Desc>
MOLT-4

>  <Group Label>
N

$$$$
>  <Compound>
CC(SC(=S)N(C)C)C(=O)Nc1nnc(-c2ccc(Cl)cc2)o1 (centres undefined)

>  <Target Desc>
MOLT-4

>  <Group Label>
N

$$$$
